assay: Plasma concentration in fed rat at 5 mg/kg, po measured at 24 hrs; format: ADME, organism-based; design: dose 5 mg/kg, route oral
Measure name: concentration at 24 h (ng/mL)

> print(dat)
                               smiles.input  result
1  COC(=O)c1[nH]cc(C(=O)NCc2ccc(F)cc2)c(=O)c1O     130

###

Record set of IC50 for target or system UniProtKB Q7ZJM1.
Sequence (Q7ZJM1 whole entry): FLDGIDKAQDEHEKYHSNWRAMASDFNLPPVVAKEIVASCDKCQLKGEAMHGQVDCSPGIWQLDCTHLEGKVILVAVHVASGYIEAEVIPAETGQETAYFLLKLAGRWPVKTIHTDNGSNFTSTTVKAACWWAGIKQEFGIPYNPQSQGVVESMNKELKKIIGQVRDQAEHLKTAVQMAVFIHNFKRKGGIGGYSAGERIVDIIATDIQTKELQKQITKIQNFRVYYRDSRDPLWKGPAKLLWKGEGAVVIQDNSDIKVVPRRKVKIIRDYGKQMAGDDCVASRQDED
Measure name: IC50 (nM)

> print(dat)
                               smiles.input  result
1  COC(=O)c1[nH]cc(C(=O)NCc2ccc(F)cc2)c(=O)c1O      18
2  CNC(=O)c1[nH]cc(C(=O)NCc2ccc(F)cc2)c(=O)c1O    1300
3  CN(C)C(=O)c1[nH]cc(C(=O)NCc2ccc(F)cc2)c(=O)c1O     540
4  O=C(O)c1[nH]cc(C(=O)NCc2ccc(F)cc2)c(=O)c1O      10
5  O=C(NCCO)c1[nH]cc(C(=O)NCc2ccc(F)cc2)c(=O)c1O     300
6  COCCNC(=O)c1[nH]cc(C(=O)NCc2ccc(F)cc2)c(=O)c1O     130
7  NC(=O)c1[nH]cc(C(=O)NCc2ccc(F)cc2)c(=O)c1O     380

###

assay: Volume of distribution at steady state in fed beagle dog at 1 mg/kg, iv measured up to 24 hrs; type: ADME, organism-based, Canis lupus familiaris; set-up: dose 1 mg/kg, route intravenous; details: in vivo, read-out: Vdss
Measure name: Vd (L/kg)

> print(dat)
                               smiles.input  measure.name  result
1  COC(=O)c1[nH]cc(C(=O)NCc2ccc(F)cc2)c(=O)c1O            Vd    0.14

###

tested on: Human immunodeficiency virus 1; test: Inhibition of wild type HIV1 3B infected in human MT4 cells using cells pre-incubated with compound for 1 hr measured 4 days post viral infection in presence of 20 mg/ml HSA by MTT assay; assay type: functional, organism-based; settings: Human immunodeficiency virus 1, 3B
Measured IC50 accompanies every entry in the list below.
Measure name: IC50 (nM)

> print(dat)
                               smiles.input             experimental.target  measure.name  result
1  COc1cc2c(cc1Cc1cccc(Cl)c1F)c(=O)c(C(=O)O)cn2[C@H](CO)C(C)C  Human immunodeficiency virus 1          IC50      29
2  Cc1nnc(C(=O)NC(C)(C)c2nc(C(=O)NCc3ccc(F)cc3)c(O)c(=O)n2C)o1  Human immunodeficiency virus 1          IC50      29
3  COC(=O)c1[nH]cc(C(=O)NCc2ccc(F)cc2)c(=O)c1O  Human immunodeficiency virus 1          IC50     120

###

assay: Terminal half life in fed beagle dog at 1 mg/kg, iv measured up to 24 hrs; type: ADME, organism-based, Canis lupus familiaris; parameters: dose 1 mg/kg, route intravenous; conditions: in vivo, read-out: beta t1/2 (converted)
Measure name: half-life (min)

> print(dat)
                               smiles.input  units.symbol  result
1  COC(=O)c1[nH]cc(C(=O)NCc2ccc(F)cc2)c(=O)c1O           min     228

###

assay: Volume of distribution at steady state in fed rat at 1 mg/kg, iv measured up to 24 hrs; assay type: ADME, organism-based; design: dose 1 mg/kg, route intravenous; details: in vivo, read-out: Vdss
Measure name: Vd (L/kg)

> print(dat)
                               smiles.input  units.symbol  result
1  COC(=O)c1[nH]cc(C(=O)NCc2ccc(F)cc2)c(=O)c1O          L/kg     0.2

###

assay: Half life in fed rat at 5 mg/kg, po measured up to 24 hrs; format: ADME, organism-based; set-up: dose 5 mg/kg, route oral; details: in vivo
Measure name: half-life (min)

> print(dat)
                               smiles.input  measure.name  result
1  COC(=O)c1[nH]cc(C(=O)NCc2ccc(F)cc2)c(=O)c1O     half-life     252

###

experiment: Cytotoxicity against human MT4 cells incubated for 4 days by MTT assay; assay type: cell-based
Items are presented alongside their recorded CC50 at 96 h.
Measure name: CC50 at 96 h (µM)

> print(dat)
                               smiles.input  result.modifier  result
1  CNC(=O)c1[nH]cc(C(=O)NCc2ccc(F)cc2)c(=O)c1O                =     8.5
2  O=C(O)c1[nH]cc(C(=O)NCc2ccc(F)cc2)c(=O)c1O                >     200
3  COC(=O)c1[nH]cc(C(=O)NCc2ccc(F)cc2)c(=O)c1O                =      19
4  NC(=O)c1[nH]cc(C(=O)NCc2ccc(F)cc2)c(=O)c1O                =      40
5  CN(C)C(=O)c1[nH]cc(C(=O)NCc2ccc(F)cc2)c(=O)c1O                =     5.1
6  O=C(NCCO)c1[nH]cc(C(=O)NCc2ccc(F)cc2)c(=O)c1O                >     200

Every entry's value here was drawn from ChEMBL document CHEMBL2169855.
